Literature-derived pIC50 for Coagulation factor X (Homo sapiens, UniProt P00742) follows.
pIC50 is a log-scale quantity: -log10 of the concentration expressed in molar.

Solved cases (6 shown):
# Compound, Assay system, pIC50
measured = [
    ("CN1CCc2nc(C(=O)N[C@@H]3CN(CC(=O)O)CC[C@@H]3NC(=O)c3cc4cc(Cl)ccc4[nH]3)sc2C1", "Coagulation factor X (Homo sapiens, UniProt P00742)", 7.59),
    ("N=C(N)NCCC[C@@H](NC(=O)CN1CCN(S(=O)(=O)Cc2ccccc2)CC1)C(=O)c1nccs1", "Coagulation factor X (Homo sapiens, UniProt P00742)", 4.62),
    ("COc1ccc(NC(=O)c2ccc(C(=N)N(C)C)cc2N2CCCCC2)c(C(=O)Nc2ccc(Cl)cn2)c1", "Coagulation factor X (Homo sapiens, UniProt P00742)", 8.70),
    ("Cc1cc(C(=O)Nc2ccc(-c3ccccc3S(N)(=O)=O)cc2)n(-c2cc3ccccc3cc2C(=O)O)n1", "Coagulation factor X (Homo sapiens, UniProt P00742)", 6.42),
    ("COC(=O)C(Cc1cccc(C(=N)N)c1)C(CCc1ccccc1)NC(=O)c1ccc(-c2ccccc2)cc1 (stereo in doubt; 8a)", "Coagulation factor X (Homo sapiens, UniProt P00742)", 7.22),
    ("C/C(=C(\\F)C(=O)Nc1ccc(-c2ccccc2S(N)(=O)=O)cc1F)c1cccc(C(=N)NN)c1", "Coagulation factor X (Homo sapiens, UniProt P00742)", 6.96),
]

Would you kindly look at the next entry?
Problem: With Coagulation factor X (Homo sapiens, UniProt P00742) as the test system, provide measured pIC50 for this compound: `Cc1cccc(NC(=N[C@H]2CCCCN(CC(=O)N3CCCC3)C2=O)NC(=O)c2ccc(F)c(F)c2)c1`
Result: 6.57

====

Collected literature values of IC50 measured for Coagulation factor X (Homo sapiens, UniProt P00742).
All answers are understood in nM, so give the number only.

Some solved cases for reference:
# Chem smiles, IC50 [nM]
measured = [
    ("Cc1cc2cc(N/C(=N\\C#N)N[C@H]3CCCCN(CC(=O)N4CCCC4)C3=O)cc(F)c2o1", 11),
    ("CC[C@H](C)[C@H](NC(=O)[C@@H](Cc1ccccc1)NS(=O)(=O)Cc1ccccc1)C(=O)N[C@@H](CCCN=C(N)N)C(=O)c1nccs1", 380),
]

Problem: Name the value of IC50 reported for `N=C(N)NCCC[C@H](NC(=O)CN1CCN(S(=O)(=O)Cc2ccccc2)[C@H](CCCNC(=N)N)C1=O)C(=O)c1nccs1` when tested on Coagulation factor X (Homo sapiens, UniProt P00742).
Result: 13

====

Record: compiled IC50 on UniProtKB P00742 from multiple reports.
Just the number in nM, nothing appended.

# Compound, Assay system, Measured attribute, Unit label, Value observed
data = [
    ("CN(C(=O)[C@@H]1Cc2ccccc2CN1C(=O)OC(C)(C)C)c1ccc(N2CCCCC2=O)cc1", "UniProtKB P00742", "IC50", "nM", 221000),
    ("N=C(N)NCCCC(NC(=O)CC(=O)O)C(=O)NCC(=O)N[C@H](C=O)CCCNC(=N)N (single isomer, unassigned)", "UniProtKB P00742", "IC50", "nM", 100),
    ("COC(=O)C1CN(S(=O)(=O)c2cc3cc(Cl)ccc3[nH]2)CCN1C(=O)c1ccc(C2=NCCN2C)cc1 (stereo not drawn)", "UniProtKB P00742", "IC50", "nM", 27),
]

Problem: Jot down IC50 (UniProtKB P00742) of `N=C(N)c1ccc2oc(CCc3cc4cc(C(=N)N)ccc4o3)cc2c1` .
Result: 100

Problem: Please look at `Cc1cc(C(=O)Nc2ccc(C(=N)N)cc2F)n(-c2cc3ccccc3cc2F)n1` and tell me its recorded IC50 on UniProtKB P00742.
Result: 777

====

Collected from the literature: IC50 of various compounds toward Coagulation factor X (Homo sapiens, UniProt P00742).
The response must be a number in nM with no trailing unit.

Answered cases to consult:
# Chem smiles, Value observed
data = [
    ("N=C(N)c1ccc(-c2ccc(C(=O)Nc3ccc(Cl)cc3C(=O)Nc3ccc(Cl)cn3)cc2)cc1", 66),
    ("NC(N)=NCCC[C@H](NC(=O)CNC(=O)[C@@H](CCCN=C(N)N)NS(=O)(=O)CCc1ccccc1)C(=O)c1nc2ccccc2o1", 2),
]

Problem: Param request: IC50 | system Coagulation factor X (Homo sapiens, UniProt P00742) | item `Cc1cc(C(=O)Nc2ccc(-n3ccnc3CN)cc2F)n(-c2cc3ccccc3cc2F)n1`
Result: 13

====

Please find below IC50 measurements for Coagulation factor X (Homo sapiens, UniProt P00742), combined from several publications.
Friendly reminder: IC50 below 0.01 µM is t, at or above is f.

Consider the following illustrative entries.
# Compound, Cat
rows = [
    ("Cc1cc(C(=O)Nc2ccc(C(=N)N3CCC3)cc2F)n(-c2cc3ccccc3cc2F)n1", "f"),
    ("N=C(N)NCCCC(NC(=O)CN1CCN(S(=O)(=O)c2cccc3ccccc23)CC1=O)C(=O)c1nccs1 (configuration not stated)", "t"),
    ("CCOC(=O)[C@]1(C)CCC[C@@]2(C)[C@@H]3CC[C@@]4(C)C[C@]3(CC[C@@H]21)C/C4=N\\NC(=S)Nc1ccccc1Cl", "f"),
    ("Cc1cn2c(N3CCN(C(=O)CCS(=O)(=O)c4ccc5cc(Cl)ccc5c4)CC3)cccc2n1", "f"),
    ("CC(CCc1ccccc1)Nc1c(F)c(Oc2cccc(C(=N)N)c2)nc(Oc2ccc(OC(C)C)cc2C(=O)O)c1F (configuration not stated)", "f"),
    ("CC(C)(C)C[C@H](NC(=O)[C@@H](Cc1ccccc1)NS(=O)(=O)Cc1ccccc1)C(=O)N[C@@H](CCCNC(=N)N)C(=O)c1nccs1", "f"),
]

Problem: Could you please tell me whether IC50 recorded for `O=C(Nc1ccc(N2CCOCC2=O)cc1)[C@@H]1CC=CCN1C(=O)Cc1ccc(Cl)cc1` is less than 0.01 µM?
Result: f

Problem: Decide: IC50 of `Cn1cc2cc(N/C(=N\C#N)N[C@H]3CCCCN(CC(=O)N4CCCC4)C3=O)ccc2n1` strictly below 0.01 µM?
Result: f

Problem: Field: below-cutoff. Rule: recorded IC50 strictly less than 0.01 µM. Subject: `O=C(N1CCCC1)N1CC[C@H](CNS(=O)(=O)c2ccc(-c3ccc(Cl)s3)s2)C1`
Result: f

Problem: Strictly below 0.01 µM: is that where IC50 of `COc1ccc(OC)c(S(=O)(=O)N2CCC(N(C/C=C/c3cccc(C(=N)N)c3)C(=O)CC(=O)O)CC2)c1` sits?
Result: f

Problem: Quick check: IC50 of N=C(N)NCCCC(NC(=O)CN1CCN(S(=O)(=O)c2cc(Cl)c(Cl)cc2Cl)CC1=O)C(=O)c1nccs1 (configuration not stated) under 0.01 µM?
Result: t

Problem: Lab note: IC50 threshold 0.01 µM. Does this compound come in strictly under it? `NC(N)=NCCC[C@H](NC(=O)CN1CCN[C@H](CCCN=C(N)N)C1=O)C(=O)c1nccs1`
Result: f

Problem: API: query returns whether the compound falls strictly under 0.01 µM in IC50. Query: CN(C)C(=O)CC1CN(S(=O)(=O)c2cc3ccc(Cl)cc3s2)CCN1C(=O)c1ccc(C2=NCCN2C)cc1 (configuration not stated)
Result: t

Problem: Input `CS(=O)(=O)N(Cc1ccc2ccc(C(=N)N)cc2c1)C1CCN(S(=O)(=O)c2ccccc2Cl)CC1` ; condition: IC50 strictly below 0.01 µM. Does it hold?
Result: f

Problem: Quick check: does `COc1ccc(CC(=O)N2CN(c3ccc(N4CCCCC4=O)cc3)C(=O)c3cc(OC)ccc32)c(OC)c1` have IC50 under 0.01 µM?
Result: f

Problem: Please state whether IC50 is below 0.01 µM for `Nc1n[nH]c(-c2ccncc2)n1`
Result: f

Problem: For the compound `CN1CCN=C1c1ccc(C(=O)Nc2ccc(Cl)cc2C(=O)Nc2ccc(Cl)cn2)cc1` , is IC50 under 0.01 µM?
Result: t

====

Coagulation factor X (Homo sapiens, UniProt P00742) pIC50, compiled from various sources.
Note on units: pIC50 is unitless, being -log10 of a concentration expressed in mol/L.

# Molecule, Assay system, pIC50
measured = [
    ("N=C(c1ccc(C(=O)Nc2ccccc2C(=O)Nc2ccc(Cl)cn2)cc1)N1CCCCC1", "Coagulation factor X (Homo sapiens, UniProt P00742)", 8.52),
    ("N=C(N)c1ccc(CNC(=O)CN2C(=O)[C@H](NS(=O)(=O)Cc3ccccc3)CSc3ccc(CC(N)C(=O)O)cc32)cc1 (some centres not stated)", "Coagulation factor X (Homo sapiens, UniProt P00742)", 5.98),
    ("C/C(=C1\\CC(=O)N(c2ccc(-c3ccccc3S(N)(=O)=O)cc2)C1=O)c1cccc(C(=N)NO)c1", "Coagulation factor X (Homo sapiens, UniProt P00742)", 6.15),
]

Problem: Annotate the molecule `O=C(c1cc2c(s1)CNCC2)N1CCN(S(=O)(=O)c2ccc3cc(Cl)ccc3c2)CC1` with its measured pIC50.
Result: 6.80

Problem: Complete the entry with pIC50 for N=C(N)N1CCC[C@H](NC(=O)Cn2ccc(CCc3ccccc3)c(NS(=O)(=O)c3ccccc3)c2=O)C1O (some centres not stated)
Result: 5.63

Problem: Please indicate pIC50 recorded for `Cc1cccc(NC(=N[C@H]2CCCCN(CC(=O)N3CCCC3)C2=O)NC(=O)c2cccc(Cl)c2)c1`
Result: 6.43

Problem: State its pIC50: `N#Cc1ccc(C[C@H](NC(=O)[C@@H](Cc2ccccc2)NS(=O)(=O)Cc2ccccc2)C(=O)N[C@@H](CCCNC(=N)N)C(=O)c2nccs2)cc1`
Result: 6.05

Problem: Please give measured pIC50 of the following entry: `N=C(N)N1CCc2ccc(OCC3CCN(Cc4ccccn4)CC3)cc2C1`
Result: 5.87
